- system_under_test: dopamine D2 receptor (Rattus norvegicus)
- Construct: the receptor fraction prepared from the corpus striatum was molten and suspended; from tissue; host or cells: corpus striatum of SD rats (membrane fraction)
- Sequence (P61169 whole entry): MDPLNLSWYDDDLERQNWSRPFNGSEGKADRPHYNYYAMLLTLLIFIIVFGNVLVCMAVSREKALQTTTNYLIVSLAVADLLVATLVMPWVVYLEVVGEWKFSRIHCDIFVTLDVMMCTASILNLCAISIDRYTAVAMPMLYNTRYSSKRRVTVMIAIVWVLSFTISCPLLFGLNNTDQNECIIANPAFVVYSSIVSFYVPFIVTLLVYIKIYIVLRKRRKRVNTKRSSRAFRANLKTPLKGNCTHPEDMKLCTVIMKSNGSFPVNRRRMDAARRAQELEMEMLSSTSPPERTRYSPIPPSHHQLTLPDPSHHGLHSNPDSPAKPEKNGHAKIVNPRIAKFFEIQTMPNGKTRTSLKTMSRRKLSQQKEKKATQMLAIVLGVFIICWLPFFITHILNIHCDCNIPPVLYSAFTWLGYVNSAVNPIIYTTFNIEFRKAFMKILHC
- measurement_description: dopamine D2 receptor binding test ([3H] Spiperone Binding Test)
- Parameters: species or system SD rats
- experimental_setup: 1 nM [3H] Spiperone, rat corpus striatum, room temperature, 60 minutes; read-out: Ki value, dopamine D2 receptor
pKi: −log10 of the molar value.
measure: pKi

>>> df
                            compound_smiles                         system_under_test  measure  reported_relation  measured
0  CCN1CCN(c2cc(-c3ccccc3)c(OC)c(-c3ccco3)c2)CC1  dopamine D2 receptor (Rattus norvegicus)      pKi                  =      6.58
1  CCN1CCN(c2cc(-c3ccccc3)c(F)c(S(=O)(=O)CC)c2)CC1  dopamine D2 receptor (Rattus norvegicus)      pKi                  =      8.20
2  CCN1CCN(c2cc(-c3ccc(F)cc3C)c(Cl)c(S(=O)(=O)CC3CC3)c2)CC1  dopamine D2 receptor (Rattus norvegicus)      pKi                  =      7.92
3  CCN1CCN(c2cc(-c3ccccc3)c(O)c(-c3ccccc3)c2)CC1  dopamine D2 receptor (Rattus norvegicus)      pKi                  <      6.00
4  CN1CCN(c2cc(NS(C)(=O)=O)c(Cl)c(-c3ccccc3Cl)c2)CC1  dopamine D2 receptor (Rattus norvegicus)      pKi                  =      8.88

----------
- system_under_test: adrenergic α1 receptor
- measurement_description: adrenergic α1 receptor binding test ([3H] Prazosin Binding Test)
- Parameters: species or system SD rats
- experimental_setup: 1 nM [3H] Prazosin, rat cortex, room temperature, 60 minutes
measure: Ki (nM)

>>> print(df.to_string())
                            compound_smiles  measure  reported_relation  measured
0  CCCS(=O)(=O)Nc1cc(N2CCN(CC)CC2)cc(-c2ccc(Cl)cc2Cl)c1Cl       Ki                  =      32.5
1  O=C(Cc1ccccc1)c1cc(N2CCNCC2)cc(-c2ccccc2)c1O       Ki                  >      1000
2  CCN1CCN(c2cc(CCCF)c(OC)c(-c3ccccc3)c2)CC1       Ki                  =       182
3  CCCS(=O)(=O)Nc1cc(N2CCN(CC)CC2)cc(-c2ccccc2C=O)c1Cl       Ki                  =       744
4  CCN1CCN(c2cc(C#N)c(OC)c(-c3ccccc3)c2)CC1       Ki                  >      1000

----------
The compounds below have reported Ki for serotonin S2 receptor (Rattus norvegicus, UniProt P14842).
measure: Ki (nM)

                                   compound                         system_under_test  reported_relation  measured
0        CCN1CCN(c2ccc(O)c(-c3ccccc3)c2)CC1  serotonin S2 receptor (Rattus norvegicus, UniProt P14842)                  >      1000
1  CCC(F)c1cc(N2CCN(CC)CC2)cc(-c2ccccc2Cl)c1Cl (stereo not drawn)  serotonin S2 receptor (Rattus norvegicus, UniProt P14842)                  =      40.9
2  CCC(F)c1cc(N2CCN(CCO)CC2)cc(-c2ccccc2C)c1Cl (stereo not drawn)  serotonin S2 receptor (Rattus norvegicus, UniProt P14842)                  =      21.6
3  CCCC(F)c1cc(N2CCN(C)CC2)cc(-c2ccccc2C)c1Cl (stereo not drawn)  serotonin S2 receptor (Rattus norvegicus, UniProt P14842)                  =      12.4
4  CCN1CCN(c2cc(NS(=O)(=O)CC)c(Cl)c(-c3ccccc3C)c2)CC1  serotonin S2 receptor (Rattus norvegicus, UniProt P14842)                  =      6.15
5  CCN1CCN(c2cc(CCCF)c(OC)c(-c3ccccc3)c2)CC1  serotonin S2 receptor (Rattus norvegicus, UniProt P14842)                  =      24.3
6  COc1c(C(=O)Cc2ccccc2)cc(N2CCNCC2)cc1-c1ccccc1  serotonin S2 receptor (Rattus norvegicus, UniProt P14842)                  =      1.49
7  CCCS(=O)(=O)c1cc(N2CCN(CC)CC2)cc(-c2ccccc2C)c1Cl  serotonin S2 receptor (Rattus norvegicus, UniProt P14842)                  =      8.81
8  CCN1CCN(c2cc(-c3ccccc3)c(OC)c(C3OCCCO3)c2)CC1  serotonin S2 receptor (Rattus norvegicus, UniProt P14842)                  >      1000

----------
- system_under_test: adrenergic α1 receptor
- measurement_description: adrenergic α1 receptor binding test ([3H] Prazosin Binding Test)
- Parameters: species or system SD rats
- experimental_setup: 1 nM [3H] Prazosin, rat cortex, room temperature, 60 minutes
measure: Ki (nM)

>>> print(df.to_string())
                                   compound  measure  reported_relation  measured
0  CCC(C)c1cc(N2CCN(CC)CC2)cc(-c2ccccc2)c1Cl (centres unmarked) [Example 147]       Ki                  =      33.2
1  CCS(=O)(=O)Nc1cc(N2CCN(C)CC2)cc(-c2ccccc2Cl)c1Cl [Example 34]       Ki                  =      25.8
2  CCN1CCN(c2cc(NS(=O)(=O)CCCCl)c(Cl)c(-c3ccccc3C)c2)CC1 [Example 165]       Ki                  >      1000
3  CCCCOC(CC)c1cc(N2CCN(CC)CC2)cc(-c2ccccc2)c1OC (centres unmarked) [Example 81]       Ki                  >      1000
4  CCN1CCN(c2cc(-c3ccccc3C)c(Cl)c(C(F)(F)CC)c2)CC1 [Example 55]       Ki                  >      1000

----------
- system_under_test: dopamine D2 receptor (Rattus norvegicus)
- Construct: the receptor fraction prepared from the corpus striatum was molten and suspended; from tissue; host or cells: corpus striatum of SD rats (membrane fraction)
- measurement_description: dopamine D2 receptor binding test ([3H] Spiperone Binding Test)
- Set-up: species or system SD rats
- experimental_setup: 1 nM [3H] Spiperone, rat corpus striatum, room temperature, 60 minutes; read-out: Ki value, dopamine D2 receptor
pKi: −log10 of the molar value.
Label rule, in plain words: pKi of 8 and up is TRUE, under 8 is FALSE.

In [3]: df
Out[3]:
                                    compound                         system_under_test  category
 0   CCN1CCN(c2cc(CO)c(OC)c(-c3ccccc3)c2)CC1  dopamine D2 receptor (Rattus norvegicus)     FALSE
 1  O=C(Cc1ccccc1)c1cc(N2CCNCC2)cc(-c2ccccc2)c1O  dopamine D2 receptor (Rattus norvegicus)     FALSE
 2  CCNS(=O)(=O)c1cc(N2CCN(CC)CC2)cc(-c2ccccc2)c1OC  dopamine D2 receptor (Rattus norvegicus)     FALSE
 3  CCN1CCN(c2cc(CCC(C)=O)c(OC)c(-c3ccccc3)c2)CC1  dopamine D2 receptor (Rattus norvegicus)     FALSE
 4  CCC(F)c1cc(N2CCN(C)CC2)cc(-c2ccccc2Cl)c1Cl (stereo not shown)  dopamine D2 receptor (Rattus norvegicus)      TRUE
 5  CCC(F)c1cc(N2CCN(C)CC2)cc(-c2ccccc2CO)c1Cl (stereo not shown)  dopamine D2 receptor (Rattus norvegicus)     FALSE
 6  CCN1CCN(c2cc(-c3ccccc3)c(OC)c([S+]([O-])CC)c2)CC1 (stereo not shown)  dopamine D2 receptor (Rattus norvegicus)     FALSE
 7  CCC(=O)c1cc(N2CCN(CC)CC2)cc(-c2ccccc2)c1Cl  dopamine D2 receptor (Rattus norvegicus)      TRUE
 8  CCC(F)c1cc(N2CCN(C)CC2)cc(-c2ccccc2C)c1Cl (stereo not shown)  dopamine D2 receptor (Rattus norvegicus)      TRUE
 9  CCN1CCN(c2cc(-c3ccc(F)cc3C)c(Cl)c(S(=O)(=O)NC3CC3)c2)CC1  dopamine D2 receptor (Rattus norvegicus)      TRUE
10  CCN1CCN(c2cc(-c3ccccc3)c(OC)c(S(=O)(=O)CCF)c2)CC1  dopamine D2 receptor (Rattus norvegicus)     FALSE
11  CCCCS(=O)(=O)Nc1cc(N2CCN(C)CC2)cc(-c2ccccc2C)c1Cl  dopamine D2 receptor (Rattus norvegicus)      TRUE
12  CCC(F)c1cc(N2CCN(CC)CC2)cc(-c2ccccc2CF)c1Cl (stereo not shown)  dopamine D2 receptor (Rattus norvegicus)      TRUE
